Tested on: Candida albicans
protocol.summary: Down regulation of ERG11 gene expression in fluconazole susceptible Candida albicans ATCC 90028 at MIC after 2 hrs by qRT PCR analysis relative to control
Assay type: functional
Could you please report measured fold change (FC) for the items listed next?

Would you please look over these solved cases?
{"molecule": "NC(=S)N1N=C(c2ccccc2)CC1c1ccc(C2CC(c3ccccc3)=NN2C(N)=S)cc1 (stereo unspecified)", "fold change (FC)": "1.5 - 13"}
{"molecule": "c1ccc(-c2cc(-c3ccc(-c4cc(-c5ccccc5)n[nH]4)cc3)[nH]n2)cc1", "fold change (FC)": "1.5 - 13"}
{"molecule": "S=C1NC(c2ccccc2)=CC(c2ccc(C3C=C(c4ccccc4)NC(=S)N3)cc2)N1 (stereo unspecified)", "fold change (FC)": "1.5 - 13"}
{"molecule": "O=C1NC(c2ccccc2)=CC(c2ccc(C3C=C(c4ccccc4)NC(=O)N3)cc2)N1 (stereo unspecified)", "fold change (FC)": "1.5 - 13"}
{"molecule": "O=C(/C=C/c1ccc(/C=C/C(=O)c2ccccc2)cc1)c1ccccc1", "fold change (FC)": "1.5 - 13"}

Value sought: fold change (FC), system Candida albicans, item c1ccc(C2=NOC(c3ccc(C4CC(c5ccccc5)=NO4)cc3)C2)cc1 (stereo unspecified) . Result: 1.5 - 13

---

System: Candida albicans
protocol.summary: Antifungal activity against fluconazole resistant Candida albicans 167-1 in presence of fluconazole by CLSI protocol based broth microdilution method
Format: functional
endpoint.name: fractional inhibitory concentration index (FICI)

Would you please look over these solved cases?
{"molecule": "c1ccc(C2=NOC(c3ccc(C4CC(c5ccccc5)=NO4)cc3)C2)cc1 (configuration not stated)", "measured": "0.532 - 1.02"}
{"molecule": "O=C(/C=C/c1ccc(/C=C/C(=O)c2ccccc2)cc1)c1ccccc1", "measured": "0.266 - 0.27"}

Working through the 5 molecules below one at a time, give fractional inhibitory concentration index (FICI) for each.
1. NC(=S)N1N=C(c2ccccc2)CC1c1ccccc1 (configuration not stated)
2. O=C(/C=C/c1ccccc1)c1ccccc1 [CHALCONE]
3. NC(=S)N1N=C(c2ccccc2)CC1c1ccc(C2CC(c3ccccc3)=NN2C(N)=S)cc1 (configuration not stated)
4. O=C1NC(c2ccccc2)=CC(c2ccc(C3C=C(c4ccccc4)NC(=O)N3)cc2)N1 (configuration not stated)
5. SC1=NC(c2ccccc2)=CC(c2ccccc2)N1 (configuration not stated)

Response given:
1. 0.75 - 1.5
2. 0.562 - 0.62
3. 0.372 - 1.5
4. 0.031 - 0.25
5. 0.254 - 0.27

Working through the 5 molecules below one at a time, give fractional inhibitory concentration index (FICI) for each.
1. O=C1NC(c2ccccc2)=CC(c2ccccc2)N1 (configuration not stated)
2. c1ccc(-c2cc(-c3ccccc3)[nH]n2)cc1
3. S=C1NC(c2ccccc2)=CC(c2ccc(C3C=C(c4ccccc4)NC(=S)N3)cc2)N1 (configuration not stated)
4. c1ccc(C2=NOC(c3ccccc3)C2)cc1 (configuration not stated)
5. c1ccc(-c2cc(-c3ccc(-c4cc(-c5ccccc5)n[nH]4)cc3)[nH]n2)cc1

Response given:
0.129 - 0.27
0.625 - 1.5
0.25 - 0.251
0.531 - 0.56
0.531 - 2.27

---

Could you please report measured fractional inhibitory concentration index (FICI) for the items listed next?
System: Candida albicans
protocol.summary: Antifungal activity against fluconazole susceptible Candida albicans 0072gr in presence of fluconazole by CLSI protocol based broth microdilution method
Assay type: functional

Would you please look over these solved cases?
{"molecule": "NC(=S)N1N=C(c2ccccc2)CC1c1ccc(C2CC(c3ccccc3)=NN2C(N)=S)cc1 (stereo not given)", "target.or.system": "Candida albicans", "measured": "0.53 - 2.19"}
{"molecule": "S=C1NC(c2ccccc2)=CC(c2ccc(C3C=C(c4ccccc4)NC(=S)N3)cc2)N1 (stereo not given)", "target.or.system": "Candida albicans", "measured": "0.13 - 0.31"}
{"molecule": "O=C(/C=C/c1ccc(/C=C/C(=O)c2ccccc2)cc1)c1ccccc1", "target.or.system": "Candida albicans", "measured": "0.31 - 1.5"}
{"molecule": "c1ccc(-c2cc(-c3ccc(-c4cc(-c5ccccc5)n[nH]4)cc3)[nH]n2)cc1", "target.or.system": "Candida albicans", "measured": "0.63 - 1.5"}
{"molecule": "SC1=NC(c2ccccc2)=CC(c2ccccc2)N1 (stereo not given)", "target.or.system": "Candida albicans", "measured": "0.37 - 1.13"}

Working through the 5 molecules below one at a time, give fractional inhibitory concentration index (FICI) for each.
1. c1ccc(C2=NOC(c3ccccc3)C2)cc1 (stereo not given)
2. O=C1NC(c2ccccc2)=CC(c2ccc(C3C=C(c4ccccc4)NC(=O)N3)cc2)N1 (stereo not given)
3. O=C(/C=C/c1ccccc1)c1ccccc1
4. NC(=S)N1N=C(c2ccccc2)CC1c1ccccc1 (stereo not given)
5. O=C1NC(c2ccccc2)=CC(c2ccccc2)N1 (stereo not given)

Response given:
["0.75 - 2", "0.13 - 0.38", "0.75 - 4.38", "1.97 - 4.28", "0.31 - 1.5"]

---

Test system: Candida albicans
protocol.summary: Antifungal activity against fluconazole susceptible Candida albicans 0079gr by CLSI protocol based broth microdilution method
Type: functional
Could you please report measured MIC for the items listed next?

Would you please look over these solved cases?
{"molecule": "O=C(/C=C/c1ccccc1)c1ccccc1", "measured": "31 to 62 µg/mL"}
{"molecule": "NC(=S)N1N=C(c2ccccc2)CC1c1ccccc1 (stereo not given)", "measured": "125 to 500 µg/mL"}
{"molecule": "c1ccc(-c2cc(-c3ccccc3)[nH]n2)cc1", "measured": "16 to 62 µg/mL"}

Working through the 2 molecules below one at a time, give MIC for each.
1. c1ccc(-c2cc(-c3ccc(-c4cc(-c5ccccc5)n[nH]4)cc3)[nH]n2)cc1
2. c1ccc(C2=NOC(c3ccc(C4CC(c5ccccc5)=NO4)cc3)C2)cc1 (stereo not given)

Response given:
["2 to 16 µg/mL", "2 to 8 µg/mL"]
